B1: minF1; the commonest letter at each place (parent)
chain: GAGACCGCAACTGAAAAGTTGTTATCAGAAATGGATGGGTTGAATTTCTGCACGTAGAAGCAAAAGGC

# Variants of: B1
# procedure-details: fraction ligated after 30 min (ligated reads / total reads); higher = more ligase activity
# study-conditions: with F1*subA RNA substrate (template-directed ligation), 42 °C
readout: fraction ligated

GAGACCGCAACTGAAAAGTTGTCCTCAGAAATGGATGGGTTGAATTTCTGCACGTAGAAGCAAAAGGC [T23C A24C]	0.0187
GAGACCGCAACTGAAAAGTTGTTAACAGGAATGGATGGGTTGAATTTCTGCACGTAGAAGCAAAAGGC [T25A A29G]	0.00957
GAGACCGCAACTGAAAAGTTGTGATCAGATATGGATGGGTTGAATTTCTGCACGTAGAAGCAAAAGGC [T23G A30T]	0.806
GAGACCGCAACTGAAAAGTTGTTAGCAGATATGGATGGGTTGAATTTCTGCACGTAGAAGCAAAAGGC [T25G A30T]	0.0162
GAGACCGCAACTGAAAAGTTGTTACCAGATATGGATGGGTTGAATTTCTGCACGTAGAAGCAAAAGGC [T25C A30T]	0.0786
GAGACCGCAACTGAAAAGTTGTTATCAGAAATGGATGGGTTGGCTTTCTGCACGTAGAAGCAAAAGGC [A43G A44C]	0.00393
GAGACCGCAACTGAAAAGTTGTTACAAGAAATGGATGGGTTGAATTTCTGCACGTAGAAGCAAAAGGC [T25C C26A]	0.00962
GAGACCGCAACTGAAAAGTTGTAATCAGAACTGGATGGGTTGAATTTCTGCACGTAGAAGCAAAAGGC [T23A A31C]	0.181
GAGACCGCAACTGAAAAGTTGTTATGAGAAATGGATTGGTTGAATTTCTGCACGTAGAAGCAAAAGGC [C26G G37T]	0.00384
GAGACCGCAACTGAAAAGTTGTTATCAGCAATGGATAGGTTGAATTTCTGCACGTAGAAGCAAAAGGC [A29C G37A]	0.00482
GAGACCGCAACTGAAAAGTTGTTATCAGAAATGGATTGGTTAAATTTCTGCACGTAGAAGCAAAAGGC [G37T G42A]	0.00778
GAGACCGCAACTGAAAAGTTGTTATCAGGTATGGATGGGTTGAATTTCTGCACGTAGAAGCAAAAGGC [A29G A30T]	0.817
GAGACCGCAACTGAAAAGTTGTTAGCCGAAATGGATGGGTTGAATTTCTGCACGTAGAAGCAAAAGGC [T25G A27C]	0.0754
GAGACCGCAACTGAAAAGTTGTTATCAGAAAATGATGGGTTGAATTTCTGCACGTAGAAGCAAAAGGC [T32A G33T]	0.0384
GAGACCGCAACTGAAAAGTTGTCATCAGAAATGGAAGGGTTGAATTTCTGCACGTAGAAGCAAAAGGC [T23C T36A]	0.0123
GAGACCGCAACTGAAAAGTTGTTATCAGAAATGGATGGGTTCGTTTTCTGCACGTAGAAGCAAAAGGC [G42C A43G A44T]	0.00288
GAGACCGCAACTGAAAAGTTGTTATCACAAATGGATGGGTTGAATTTCTGCACGTAGAAGCAAAAGGC [G28C]	0.82
GAGACCGCAACTGAAAAGTTGTTATTGGAAATGGATGGGTTGAATTTCTGCACGTAGAAGCAAAAGGC [C26T A27G]	0.544
GAGACCGCAACTGAAAAGTTGTTATCAGAACTGTATGGGTTGAATTTCTGCACGTAGAAGCAAAAGGC [A31C G34T]	0.00764
GAGACCGCAACTGAAAAGTTGTAATCAGAAATGGATGGGTTGACTTTCTGCACGTAGAAGCAAAAGGC [T23A A44C]	0.0208
GAGACCGCAACTGAAAAGTTGTTATAAGAAGTGGATGGGTTGAATTTCTGCACGTAGAAGCAAAAGGC [C26A A31G]	0.102
GAGACCGCAACTGAAAAGTTGTTATCGGAAATGTATGGGTTGAATTTCTGCACGTAGAAGCAAAAGGC [A27G G34T]	0.00742
